This collection of values is drawn from paper PMC8466554.

Reported values of MBC for individual entries
- System: S.aureus Mu50-VISA
- assay.protocol: MIC and MBC microtiter plate assay
- Type: cell-based, Staphylococcus aureus
Quick reminder: number only, in µg/mL, skip the unit.

Example results:
molecule	MBC / µg/mL
CN(C)c1ccc(/C=C/c2cccc(/C=C/c3ccc(N(C)C)cc3)[n+]2C)cc1.[I-] [PB4]	2
Clc1ccc(Cl)c(-c2ccc(/C=C/c3cc[n+](-c4ncccn4)cc3)o2)c1.F[P-](F)(F)(F)(F)F [PB5]	4
CCCCN(CCCC)c1ccc(-c2ccc(C=C3CCCc4c[n+](CC)ccc43)s2)s1.[I-] [PB8]	8

Pending molecule:
Observed MBC on S.aureus Mu50-VISA for CC[n+]1ccc2c(c1)CCCC2=Cc1ccc(-c2ccc(Cl)cc2)o1.[I-] [PB7] , please.
16

---

Reported values of MIC for individual entries
- System: S.aureus Mu50-VISA
- assay.protocol: MIC and MBC microtiter plate assay
- Type: cell-based, Staphylococcus aureus
Quick reminder: number only, in µg/mL, skip the unit.

Example results:
molecule	units.text	reported.measurement
CC[n+]1ccc2c(c1)CCCC2=Cc1ccc(-c2ccc(Cl)cc2)o1.[I-] [PB7]	µg/mL	16
CN(C)c1ccc(/C=C/c2ccc3ccccc3[n+]2C)cc1.[I-] [PB1]	µg/mL	32
C[n+]1ccc(/C=C/c2ccc(-c3cc(Cl)ccc3Cl)o2)cc1.F[P-](F)(F)(F)(F)F [PB6]	µg/mL	4

Entry Clc1ccc(Cl)c(-c2ccc(/C=C/c3cc[n+](-c4ncccn4)cc3)o2)c1.F[P-](F)(F)(F)(F)F [PB5] : reported MIC = ?
2

Do the same for CCCCN(CCCC)c1ccc(-c2ccc(C=C3CCCc4c[n+](CC)ccc43)s2)s1.[I-] [PB8] please
2

Do the same for C[n+]1c(/C=C/c2ccc(-c3ccccc3)s2)ccc2ccccc21.[I-] [PB3] please
32

Do the same for CN(C)c1ccc(/C=C/c2cccc(/C=C/c3ccc(N(C)C)cc3)[n+]2C)cc1.[I-] [PB4] please
0.25

---

- System: CaCo-2 cells
- assay.protocol: MTT cytotoxicity assay
- Assay type: cell-based, human
- stated.conditions: 24 h of incubation relative to untreated controls
Reported values of pIC50 for individual entries
Interpret pIC50 as the negative base-10 log of the concentration measured in mol/L.

Example results:
molecule	assayed.system	pIC50
Clc1ccc(Cl)c(-c2ccc(/C=C/c3cc[n+](-c4ncccn4)cc3)o2)c1.F[P-](F)(F)(F)(F)F [PB5]	CaCo-2 cells	5.41
CN(C)c1ccc(/C=C/c2ccc3ccccc3[n+]2C)cc1.[I-] [PB1]	CaCo-2 cells	5.92
O=c1[nH]cc(F)c(=O)[nH]1 [5-FU, 5-Fluorouracil, reference compound]	CaCo-2 cells	4.56
CC[n+]1ccc2c(c1)CCCC2=Cc1ccc(-c2ccc(Cl)cc2)o1.[I-] [PB7]	CaCo-2 cells	5.87

Pending molecule:
Entry C[n+]1c(/C=C/c2ccc(-c3ccccc3)s2)ccc2ccccc21.[I-] [PB3] : reported pIC50 = ?
6.06

---

- System: P. aeruginosa ATCC27853
- assay.protocol: MIC microtiter plate assay
- Format: cell-based, Pseudomonas aeruginosa
- stated.conditions: value in brackets
Reported values of MIC for individual entries

compound	MIC
C[n+]1c(/C=C/c2ccc(-c3ccccc3)s2)ccc2ccccc21.[I-] [PB3]	281.10 µM
CCCCN(CCCC)c1ccc(-c2ccc(C=C3CCCc4c[n+](CC)ccc43)s2)s1.[I-] [PB8]	> 221.22 µM
CN(C)c1ccc(/C=C/c2cccc(/C=C/c3ccc(N(C)C)cc3)[n+]2C)cc1.[I-] [PB4]	125.14 µM
C[n+]1ccc(/C=C/c2ccc(-c3cc(Cl)ccc3Cl)o2)cc1.F[P-](F)(F)(F)(F)F [PB6]	> 279.40 µM
Clc1ccc(Cl)c(-c2ccc(/C=C/c3cc[n+](-c4ncccn4)cc3)o2)c1.F[P-](F)(F)(F)(F)F [PB5]	> 236.94 µM
CC[n+]1ccc2c(c1)CCCC2=Cc1ccc(-c2ccc(Cl)cc2)o1.[I-] [PB7]	> 276.02 µM

Pending compound:
Entry CN(C)c1ccc(/C=C/c2ccc3ccccc3[n+]2C)cc1.[I-] [PB1] : reported MIC = ?
> 307.47 µM
